Tested on: SH-SY5Y
Assay: Cytotoxicity against human SH-SY5Y cells assessed as reduction in cell viability at 1 to 50 uM incubated for 24 hrs by MTT assay
Type: cell-based
Endpoint: Activity

Sample answers from the record:
• O=C(NCCCCC/C=[N+](\[O-])Cc1ccccc1)c1ccccc1 = Non-Toxic
• COc1ccc(C(=O)NCCCCCCC/C=[N+](\[O-])C(C)(C)C)cc1OC = Non-Toxic
• O=C(NCCCCC/C=[N+](\[O-])C1CCCCC1)c1ccccc1 = Non-Toxic
• COc1cc(C(=O)NCCCCC/C=[N+](\[O-])C(C)(C)C)cc(OC)c1OC = 107 to 122%

We now examine a further compound.
Activity of COc1cccc(C(=O)NCCCCC/C=[N+](\[O-])C2CCCCC2)c1 , assay on SH-SY5Y, is Non-Toxic

---

Molecular target: Acetylcholinesterase (Electrophorus electricus, UniProt O42275)
Sequence (O42275 whole entry): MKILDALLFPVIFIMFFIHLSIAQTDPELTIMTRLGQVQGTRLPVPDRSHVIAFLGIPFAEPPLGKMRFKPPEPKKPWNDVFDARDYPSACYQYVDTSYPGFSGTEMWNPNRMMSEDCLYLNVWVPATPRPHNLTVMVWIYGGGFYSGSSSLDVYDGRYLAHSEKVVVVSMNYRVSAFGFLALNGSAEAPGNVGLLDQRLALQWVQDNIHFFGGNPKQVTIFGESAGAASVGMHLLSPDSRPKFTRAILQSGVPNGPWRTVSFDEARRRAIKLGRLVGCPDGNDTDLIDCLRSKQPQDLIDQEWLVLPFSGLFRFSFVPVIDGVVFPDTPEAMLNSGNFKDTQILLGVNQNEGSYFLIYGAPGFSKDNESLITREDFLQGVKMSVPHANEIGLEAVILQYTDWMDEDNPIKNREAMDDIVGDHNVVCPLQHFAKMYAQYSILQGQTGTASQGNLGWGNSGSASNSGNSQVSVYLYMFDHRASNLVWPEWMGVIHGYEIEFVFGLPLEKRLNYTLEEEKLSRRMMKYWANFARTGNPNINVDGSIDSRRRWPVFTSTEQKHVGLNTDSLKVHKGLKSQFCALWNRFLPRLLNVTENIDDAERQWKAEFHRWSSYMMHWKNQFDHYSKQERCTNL
Experiment: Inhibition of electric eel AChE assessed as inhibition constant using acetylthiocholine iodide as substrate pretreated for 5 mins followed by substrate addition measured for 5 mins by Dixon plot analysis
Endpoint: pKi
One number for each entry, as −log10 of the molar value.

Measured on Acetylcholinesterase (Electrophorus electricus, UniProt O42275), COc1ccc(C(=O)NCCCCC/C=[N+](\[O-])C(C)(C)C)cc1OC has a documented pKi of 5.28
